Cited source: patent US20140113854A1

Biological target: Human α-thrombin (human, UniProt P00734 328-363; P00734 364-622)
Assay: cell-based or functional assay
No end group written: not given here.
PROPERTY_NAME: IC50, fibrinogen clotting assay, 25 °C (nM)
Response body: numeric value in nM, unit text excluded.

BINDER	IC50, fibrinogen clotting assay, 25 °C, nM
IRFTDGEWTYDDATKTFTWTEGDFEEIPEEYLQ [MH2-wZIP5]	80
IRFTDGEWTYDDATKTFTVTEGDFEEIPEEYLQ (ends and bridges not checked) [MH2-gb1]	49
IRFTDGEWTWDDATKTWTVTEGDFEEIPEEYLQ [MH2-wZIP6]	47

Please look at the following binder next.
Notebook: IRFTDGEWTWDDATKTWTWTEGDFEEIPEEYLQ (ends and bridges not checked; also: 15N-labelled) [MH2-wZIP4] , IC50, fibrinogen clotting assay, 25 °C read as 245
